tested on: rodent lifetime carcinogenesis bioassay, tumor incidence TD50; assay: carcinogenic potency in animals, long-term in vivo studies, CPDB compilation (AID 1745844); settings: mouse; strain B6C3F1; males; inhaled; site: forestomach; lesion: squamous-cell papilloma; dosed 26 weeks; study length 53 weeks
value kind: TD50 (mg/kg/day)

1) C=CC(=C)C
1860

====

system: rodent lifetime carcinogenesis bioassay, tumor incidence TD50; assay: carcinogenic potency in animals, long-term in vivo studies, CPDB compilation (AID 1745844); details: rat; strain F344/DuCrj; females; in drinking water; site: forestomach; lesion: several types; types named in the paper; dosed 50 weeks; study length 50 weeks
value kind: TD50

1) CCCCN(N=O)C(N)=O
2.43 mg/kg/day

====

tested on: rodent lifetime carcinogenesis bioassay, tumor incidence TD50; assay: carcinogenic potency in animals, long-term in vivo studies, CPDB compilation (AID 1745844); conditions: mouse; strain Swiss; females; in drinking water; site: lung; lesion: adenocarcinoma; dosed 78 weeks; study length 151 weeks
value kind: TD50 (mg/kg/day)

1. C=COC(C)=O
29900

====

system: rodent lifetime carcinogenesis bioassay, tumor incidence TD50; assay: carcinogenic potency in animals, long-term in vivo studies, CPDB compilation (AID 1745844); settings: mouse; strain B6C3F1; males; in drinking water; site: liver; lesion: hepatoma; dosed 104 weeks; study length 104 weeks
value kind: TD50 (mg/kg/day)

1) O=C(O)C1C2C=CC(C2)C1(C(=O)O)[N+](=O)[O-] (stereo unspecified)
2640

====

tested on: rodent lifetime carcinogenesis bioassay, tumor incidence TD50; experiment: carcinogenic potency in animals, long-term in vivo studies, CPDB compilation (AID 1745844); conditions: rat; strain Fischer 344; females; in drinking water; site: Zymbal's gland; lesion: carcinoma; dosed 96 weeks; study length 97 weeks
value kind: TD50 (mg/kg/day)

1) COc1cc(-c2ccc(N=Nc3c(S(=O)(=O)O)cc4cc(S(=O)(=O)O)cc(N)c4c3O)c(OC)c2)ccc1N=Nc1c(S(=O)(=O)O)cc2cc(S(=O)(=O)O)cc(N)c2c1O
150

====

system: rodent lifetime carcinogenesis bioassay, tumor incidence TD50; test: carcinogenic potency in animals, long-term in vivo studies, CPDB compilation (AID 1745844); conditions: rat; strain Fischer 344; females; in feed; site: liver; lesion: hepatocellular adenoma + hepatocellular carcinoma + neoplastic nodule; dosed 78 weeks; study length 106 weeks
Recorded TD50 for the following compounds
value kind: TD50 (mg/kg/day)

1. CCOc1ccc(NC(C)=O)cc1[N+](=O)[O-]
6240
2. [O-]/[N+](=N\O)c1ccccc1
17.7
3. CCOc1ccc(NC(C)=O)cc1N
717
4. c1ccc(NNc2ccccc2)cc1
18.1

====

system: rodent lifetime carcinogenesis bioassay, tumor incidence TD50; assay: carcinogenic potency in animals, long-term in vivo studies, CPDB compilation (AID 1745844); settings: rat; strain Sprague-Dawley; females; in drinking water; site: mammary gland; lesion: several types; types named in the paper; dosed 104 weeks; study length 120 weeks
value kind: TD50 (mg/kg/day)

1) CCO
4710

====

system: rodent lifetime carcinogenesis bioassay, tumor incidence TD50; assay: carcinogenic potency in animals, long-term in vivo studies, CPDB compilation (AID 1745844); conditions: rat; strain Fischer 344; males; by gavage; site: adrenal medulla; lesion: pheochromocytoma benign, bilateral + pheochromocytoma, benign; dosed 94 weeks; study length 104 weeks
value kind: TD50 (mg/kg/day)

1. ClCC(Cl)CCl
12.4

Values from PubChem BioAssay AID1745844
